Please go through the items and note down their IC50.
Target: PD-1/PD-L1 interaction (PD-1-Ig / PD-L1-His) (Homo sapiens)
Construct: hPDL1(18-239)-TVMV-His; TVMV protease site linker (C); made in house; host or cells: HEK293T
Assay: PD-1/PD-L1 Homogenous Time-Resolved Fluorescence (HTRF) binding assay
Details: IC50 range class; PD-L1-His 10 nM, PD-1-Ig 20 nM; read-out: Range or IC50

Answered examples (5):
O=C(NCCCOc1cccc(-c2cccc(OCCCNC(=O)C(O)CO)c2Cl)c1Cl)C(O)CO (stereo not drawn) [Example 2135]; 1000 to 10000 nM
CC(=O)c1cc(Cl)c(OCc2cccc(-c3cccc(COc4cc(OCc5cncc(C#N)c5)c(CN[C@](C)(CO)C(=O)O)cc4Cl)c3Cl)c2Cl)cc1OCc1cncc(C#N)c1 [Example 60040]; 0.04 to 20 nM
Cc1c(COc2cc(OCc3cncc(C#N)c3)c(CN[C@H](C(=O)O)[C@@H](C)OCc3ccccc3)cc2Cl)cccc1-c1cccc(COc2cc(OCc3cncc(C#N)c3)c(CN[C@H](C(=O)O)[C@@H](C)OCc3ccccc3)cc2Cl)c1C [Example 41050]; 20.1 to 90 nM
Cc1c(NC(=O)NCCN2CC[C@@H](O)C2)cccc1-c1cccc(OCCCN2CC[C@@H](O)C2)c1C [Example 3017]; 1000 to 10000 nM
Cc1cc(OCCCN2CC[C@@H](O)C2)ccc1-c1cccc(OCCCCN2CC[C@@H](O)C2)c1C [Example 3004]; 1000 to 10000 nM

Would you mind giving IC50 for every compound in the list below?
1. CC(=O)c1cc(Cl)c(OCc2cccc(-c3cccc(COc4cc(OCc5cncc(C#N)c5)c(CN[C@H](C(=O)O)[C@@H](C)[C@H](C)O)cc4Cl)c3C)c2C)cc1OCc1cncc(C#N)c1 [Example 60050]
2. Cc1c(COc2cc(OCc3cncc(C#N)c3)c(CO)cc2Cl)cccc1-c1cccc(COc2cc(OCc3cncc(C#N)c3)c(CN[C@@H](CCO)C(=O)O)cc2Cl)c1C [Example 50150]
3. Cc1c(OCCCNCC(O)c2cccnc2)cccc1-c1cccc(OCCCN2CC[C@@H](O)C2)c1C (mixture of isomers) [Example 2040]
4. Cc1c(OCCCN(CCc2cccnc2)C[C@H](O)CO)cccc1-c1cccc(OCCCN(CCc2cccnc2)C[C@H](O)CO)c1C [Example 2102]
5. Cc1c(COc2cc(OCc3cncc(C#N)c3)c(CN[C@H](CCO)C(=O)O)cc2Cl)cccc1-c1cccc(COc2cc(OCc3cncc(C#N)c3)c(CN[C@H](CCO)C(=O)O)cc2Cl)c1C [Example 41090]
6. Cc1c(OCCCN2CCC[C@@H](O)C2)cccc1-c1cccc(OCCCN2CC[C@@H](O)C2)c1C [Example 2114]
7. Cc1c(OCCCN(CCO)CCC(C)C)cccc1-c1cccc(OCCCN2CC[C@@H](O)C2)c1C [Example 2073]
8. Cc1c(OCCCN[C@@H](CO)c2ccccc2)cccc1-c1cccc(OCCCN2CC[C@@H](O)C2)c1C [Example 2069]

Reply |
["0.04 to 20 nM", "0.04 to 20 nM", "20.1 to 90 nM", "20.1 to 90 nM", "0.04 to 20 nM", "90.1 to 1000 nM", "20.1 to 90 nM", "90.1 to 1000 nM"]

* * *

Target: PD-1/PD-L1 interaction (PD-1-Ig / PD-L1-His) (Homo sapiens, UniProt Q9NZQ7)
Construct: hPDL1(18-239)-TVMV-His; TVMV protease site linker (C); made in house; host or cells: HEK293T
Sequence (Q9NZQ7 with tags, fused parts or gaps): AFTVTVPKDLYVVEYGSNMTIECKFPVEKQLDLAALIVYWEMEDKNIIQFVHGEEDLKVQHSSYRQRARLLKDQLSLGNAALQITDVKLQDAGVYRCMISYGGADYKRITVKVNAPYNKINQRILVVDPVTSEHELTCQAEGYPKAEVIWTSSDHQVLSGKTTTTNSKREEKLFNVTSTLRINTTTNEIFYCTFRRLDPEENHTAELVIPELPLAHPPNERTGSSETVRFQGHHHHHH
Experiment: PD-1/PD-L1 Homogenous Time-Resolved Fluorescence (HTRF) binding assay
Details: numeric IC50; PD-L1-His 10 nM, PD-1-Ig 20 nM; read-out: Range or IC50
Readout: pIC50
Answers are plain numbers, as −log10 of the molar value.

Field: example entries. Status: answers known.
CC(=O)c1cc(Cl)c(OCc2cccc(-c3cccc(COc4cc(OCc5cncc(C#N)c5)c(CNC(C)(CO)C(=O)O)cc4Cl)c3C)c2C)cc1OCc1cncc(C#N)c1 (stereo not drawn); 8.22
O=C(O)C[C@@H](O)C(=O)NCCCOc1cccc(-c2cccc(OCCCNC(=O)[C@H](O)CC(=O)O)c2Cl)c1Cl; 5.46

Now look at this entry.
Ask | What value of measured pIC50 is listed for Cc1c(OCCCN2CC[C@@H](O)C2)cccc1-c1cccc(OCc2cccc(C#N)c2)c1C ?
Reply | 6.97

* * *

Target: PD-1/PD-L1 interaction (PD-1-Ig / PD-L1-His) (Homo sapiens)
Construct: hPDL1(18-239)-TVMV-His; TVMV protease site linker (C); made in house; host or cells: HEK293T
Experiment: PD-1/PD-L1 Homogenous Time-Resolved Fluorescence (HTRF) binding assay
Conditions: IC50 range class; PD-L1-His 10 nM, PD-1-Ig 20 nM; read-out: Range or IC50
Readout: IC50

CCCN(CCO)CCCOc1cccc(-c2cccc(OCCCN3CC[C@@H](O)C3)c2C)c1C; 90.1 to 1000 nM
Cc1c(COc2cc(OCc3cncc(C#N)c3)c(CO)cc2Cl)cccc1-c1cccc(COc2cc(OCc3cncc(C#N)c3)c(CNC(CO)(Cc3ccccc3)C(=O)O)cc2Cl)c1C (centres unmarked); 0.04 to 20 nM
COc1cc(OCc2cccc(-c3cccc(COc4cc(OCc5cncc(C#N)c5)c(CN(C)CCC(=O)O)cc4Cl)c3C)c2C)c(Cl)cc1CN(C)CCC(=O)O; 0.04 to 20 nM
COc1cc(OCc2cccc(-c3cccc(COc4cc(OC)c(CNC(CO)CO)cc4Cl)c3C)c2C)c(Cl)cc1CNC(CO)CO; 0.04 to 20 nM
Cc1c(COc2cc(OCc3cncc(C#N)c3)c(CO)cc2Cl)cccc1-c1cccc(COc2cc(OCc3cncc(C#N)c3)c(CN[C@@H](C(=O)O)[C@H](C)O)cc2Cl)c1C [Example 50180]; 0.04 to 20 nM

Please state, for each entry, its recorded IC50.
1. Cc1c(COc2cc(OCc3cc(F)cc(F)c3)c(CN(C)C(CO)CO)cc2Cl)cccc1-c1cccc(COc2cc(OCc3cc(F)cc(F)c3)c(CN(C)C(CO)CO)cc2Cl)c1C
2. COCCC(NCc1cc(Cl)c(OCc2cccc(-c3cccc(COc4cc(OCc5cncc(C#N)c5)c(CNC(CCOC)C(=O)O)cc4Cl)c3C)c2C)cc1OCc1cncc(C#N)c1)C(=O)O (centres unmarked)
3. Cc1c(OCCCNCC(O)CO)cccc1-c1cccc(OCCCN2CC[C@@H](O)C2)c1C (mixture of isomers)
4. COC(=O)C1CCN(Cc2cc(Cl)c(OCc3cccc(-c4cccc(COc5cc(OCc6cncc(C#N)c6)c(CN6CCC(C(=O)OC)C(O)C6)cc5Cl)c4C)c3C)cc2OCc2cncc(C#N)c2)CC1O (centres unmarked)
5. Cc1c(COc2cc(OCC3CC3)c(CNC(CCO)C(=O)O)cc2Cl)cccc1-c1cccc(COc2cc(OCC3CC3)c(CNC(CCO)C(=O)O)cc2Cl)c1C (centres unmarked)
6. Cc1c(COc2cc(OCc3cncc(C#N)c3)c(CN[C@@H](C(=O)O)[C@H](C)OCc3ccccc3)cc2Cl)cccc1-c1cccc(COc2cc(OCc3cncc(C#N)c3)c(CN[C@@H](C(=O)O)[C@H](C)OCc3ccccc3)cc2Cl)c1C

Reply |
1. 90.1 to 1000 nM
2. 0.04 to 20 nM
3. 0.04 to 20 nM
4. 20.1 to 90 nM
5. 0.04 to 20 nM
6. 20.1 to 90 nM

* * *

Biological target: PD-1/PD-L1 interaction (PD-1-Ig / PD-L1-His) (Homo sapiens, UniProt Q9NZQ7)
Construct: hPDL1(18-239)-TVMV-His; TVMV protease site linker (C); made in house; host or cells: HEK293T
Experiment: PD-1/PD-L1 Homogenous Time-Resolved Fluorescence (HTRF) binding assay
Conditions: IC50 range class; PD-L1-His 10 nM, PD-1-Ig 20 nM; read-out: Range or IC50
pIC50: −log10 of the molar value.
Readout: pIC50

Guide cases for pIC50, answers given:
Cc1c(OCCCNCCCn2ccnc2)cccc1-c1cccc(OCCCN2CC[C@@H](O)C2)c1C; 7.70 to 10.40
Cc1c(OCCCNCC2CCN(C)CC2)cccc1-c1cccc(OCCCN2CC[C@@H](O)C2)c1C; 6.00 to 7.05
Cc1c(OCCCN(CCc2ccccn2)C[C@H](O)CO)cccc1-c1cccc(OCCCN(CCc2ccccn2)C[C@H](O)CO)c1C; 7.05 to 7.70
Cc1c(OCCCN2CCCC(CO)C2)cccc1-c1cccc(OCCCN2CCCC(CO)C2)c1C (mixture of isomers); 7.70 to 10.40
Cc1c(COc2cc(OCc3cncc(C#N)c3)c(CN(C)C(CCO)C(=O)O)cc2Cl)cccc1-c1cccc(COc2cc(OCc3cncc(C#N)c3)c(CN(C)C(CCO)C(=O)O)cc2Cl)c1C (stereo not shown); 7.05 to 7.70
Cc1c(OCCCNC[C@H](O)CO)cccc1-c1cccc(OCCCN[C@H](CO)[C@H](O)c2ccccc2)c1C; 7.70 to 10.40
Cc1c(COc2cc(OCc3cncc(C#N)c3)c(CN[C@](C)(CO)C(=O)O)cc2Cl)cccc1-c1cccc(COc2cc(OCc3cncc(C#N)c3)c(CN[C@](C)(CO)C(=O)O)cc2Cl)c1C [Example 2121]; 7.70 to 10.40
Cc1c(OCCCN[C@@H](Cc2ccncc2)C(=O)O)cccc1-c1cccc(OCCCN2CC[C@@H](O)C2)c1C; 6.00 to 7.05

I need pIC50 for every entry listed below, if you could help.
1. COc1ccccc1N1CCN(CCCOc2cccc(-c3cccc(OCCCN4CC[C@@H](O)C4)c3C)c2C)CC1
2. CNCCOCCN(C)CCCOc1cccc(-c2cccc(OCCCN3CC[C@@H](O)C3)c2C)c1C
3. CCN(CC)CCCNCc1cc(Cl)c(OCc2cccc(-c3cccc(COc4cc(OCc5cncc(C#N)c5)c(CNCCCN(CC)CC)cc4Cl)c3)c2)cc1OCc1cncc(C#N)c1
4. Cc1c(OCCCNCCc2ccncc2)cccc1-c1cccc(OCCCN2CC[C@@H](O)C2)c1C
5. Cc1c(COc2cc(OCc3cncc(C#N)c3)c(CO)cc2Cl)cccc1-c1cccc(COc2cc(OCc3cncc(C#N)c3)c(CN[C@H](CO)C(=O)O)cc2Cl)c1C

Reply |
["7.05 to 7.70", "7.05 to 7.70", "7.70 to 10.40", "7.70 to 10.40", "7.70 to 10.40"]
